Assay: Human HepG2 cell viability assay in 384 well format
Assay type: toxicity, cell-based
Parameters: dose 125 nL, time 70.5 hour; concentration not given beside the values
Details: HepG2 cells, read-out: Inhibition
measure: cytotoxicity at 70.5 h (%)
Hi! Could you send only the number? It should be in %, unit omitted.

OCC1(O)CCN(Cc2noc(-c3ccccc3)n2)CC1; -6.37

**Q:** Suppose we examine the compound Cc1cc(NC(=O)NC2CCCc3c2cnn3CCO)n(C)n1 (stereo unspecified) ; what cytotoxicity at 70.5 h value has been reported?
**A:** -1.75

**Q:** O=C1CCCN1Cc1ncn2c1CN(S(=O)(=O)c1cccs1)CCC2 , same question.
**A:** -1.28

**Q:** Cool, now Cc1cnn(CC2CCCCN2C(=O)Cc2cccc(F)c2)c1 (stereo unspecified)
**A:** -10.9

**Q:** Let us now turn to CCOCCCNC(=O)c1cccn1Cc1cccnc1
**A:** -4.46

**Q:** Then this compound: CC(C(=O)N(C)Cc1noc(C2CCC2)n1)N1CCc2ccccc2C1 (stereo unspecified)
**A:** 23.9

----------
Assay: Human HepG2 cell viability assay in 384 well format
Format: toxicity, cell-based
Parameters: dose 125 nL, time 70.5 hour; concentration not given beside the values
Conditions: HepG2 cells, read-out: Inhibition
measure: cytotoxicity at 70.5 h (%)
Number in %, nothing else.

COCC1CC2(CCN(C(=O)c3occc3C)CC2)CN1C(C)C (stereo unspecified); 20.9
Cc1ccc(F)c(NS(=O)(=O)c2cc(C(=O)O)oc2C)c1; -10
Cc1cnn(CC2CCCCN2CC(=O)Nc2nc(C)cs2)c1 (stereo unspecified); -2.94
O=C(NC[C@H]1C[C@@H]2CN(C(=O)c3ccno3)C[C@@H]2O1)C1CCC1; -11.5
COCc1cc(CNC(=O)c2c(O)cccc2O)n[nH]1; -1.82

We now examine a further compound.
**Q:** Entry COc1cc(C)cc(C(C(=O)O)N(C)Cc2ccncc2C)c1OC (stereo unspecified) : reported cytotoxicity at 70.5 h = ?
**A:** 4.18

----------
Assay: Human HepG2 cell viability assay in 384 well format
Type: toxicity, cell-based
Set-up: dose 125 nL, time 70.5 hour; concentration not given beside the values
Settings: HepG2 cells, read-out: Inhibition
Quick reference for cytotoxicity at 70.5 h among some compounds
State the answer as a number, implicitly in %.

CC1Oc2ccc(S(=O)(=O)NCCCn3ccnc3)cc2NC1=O (stereo not drawn); -3.81

As a next step, examine the compound that follows.
**Q:** GET /values?readout=cytotoxicity at 70.5 h&item= Cc1noc2ncc(C(=O)NCC3CCCO3)cc12 (stereo not drawn)
**A:** -7.11

----------
Test: Human HepG2 cell viability assay in 384 well format
Format: toxicity, cell-based
Design: dose 125 nL, time 70.5 hour; concentration not given beside the values
Settings: HepG2 cells, read-out: Inhibition
The entries below are paired with their reported cytotoxicity at 70.5 h.
Entry rule: numbers only, all in %.

# count of solved cases: 3
c1cnc(N2CC3(CCN(Cc4ccncc4)C3)C2)nc1; -6.13
CS(=O)(=O)N1CC[C@H]2C[C@@H](C(=O)N3CCOCC3)O[C@@H]2C1; 2.65
O=C([C@H]1CC[C@@H]2[C@@H](CCN2c2ncccn2)O1)N1CCCCO1; -1.66

**Q:** Bench note: what cytotoxicity at 70.5 h did Cc1n[nH]c(C)c1CCc1n[nH]c(=O)n1Cc1cccs1 show?
**A:** -0.375

**Q:** CCNc1cc2c(nn1)CCN(C(=O)c1cc3nc(C)ccc3o1)C2 ?
**A:** 22.7

**Q:** Can you handle CCOC1Sc2nnc(C)n2N=C1c1ccc(Cl)cc1 (configuration not stated) next?
**A:** -8.8

----------
Here, each record is paired with measured cytotoxicity at 70.5 h data.
Test: Human HepG2 cell viability assay in 384 well format
Assay type: toxicity, cell-based
Parameters: dose 125 nL, time 70.5 hour; concentration not given beside the values
Conditions: HepG2 cells, read-out: Inhibition
Answer format: value, then unit.

CCCNC(=O)c1nc2c(o1)CN(C(=O)CN(C)C)C2; -8.52%
Cc1[nH]c2c(C)ccc(C)c2c1CC(=O)NCCCNc1cccnc1; -9.64%

**Q:** Entry CN(Cc1cccnc1)C(CO)c1cccc(Br)c1 (stereo unspecified) has what cytotoxicity at 70.5 h?
**A:** -7.61%

**Q:** Please give the result for CCCc1cc(NC(=O)c2cccc(N3CCCNC3=O)c2)n[nH]1 too.
**A:** -6.61%

**Q:** Next: Cc1cc(C(F)(F)F)c2c(=O)n(Cc3cc(C)on3)n(C)c2n1
**A:** -8.02%

**Q:** Now give it for COc1cccnc1-c1ccc(F)c2c1OC(CN)C2 (stereo unspecified) too.
**A:** 3.56%

----------
Experiment: Human HepG2 cell viability assay in 384 well format
Format: toxicity, cell-based
Design: dose 125 nL, time 70.5 hour; concentration not given beside the values
Details: HepG2 cells, read-out: Inhibition
measure: cytotoxicity at 70.5 h (%)
Quick note: give the figure in %, leave out the unit.

Answered examples (2):
CCS(=O)(=O)CCN(C)C(=O)NC(C)c1ccc(C)s1 (stereo unspecified); -5.27
CC(C)Oc1ncnc2c1CCN(C(=O)c1cccn1C)CC2; 7.42

**Q:** Consider the molecule shown here: CC(C)(C)NC(=O)C1CSCN1S(=O)(=O)c1ccccc1F (stereo unspecified) What is its recorded cytotoxicity at 70.5 h?
**A:** -4.62

**Q:** Also CCCN1CCN(C(=O)c2cc[nH]n2)[C@H]2CS(=O)(=O)C[C@H]21 , if possible.
**A:** -11.3

**Q:** What do we get for Cc1csc2c(N3CCC(NCCCC4CCOC4)CC3)ncnc12 (stereo unspecified) ?
**A:** 30.5

**Q:** // next record Cn1cc(S(=O)(=O)N2CCCC2Cn2ccnc2)cn1 (stereo unspecified)
**A:** -3.56

**Q:** What about Nc1cc2c(nn1)CCN(C(=O)CCCC1CCCCC1)C2 ?
**A:** -13.1

**Q:** Try the molecule O=C(CSC1=NS(=O)(=O)c2cc(F)ccc2N1)c1ccccc1
**A:** -3.16

**Q:** Thanks! And CC(CN1CCOC1=O)NC(=O)c1cccc2cc[nH]c12 (stereo unspecified) ?
**A:** -3.45

**Q:** Input COCCN1CCn2cc(CNC(=O)c3cnn(C)c3)nc2C1
**A:** -38

**Q:** Would you mind doing CCC(=O)N1CCC2(CC1)C(=O)N(C)CCN2Cc1csc(C)n1 as well?
**A:** -4.08

----------
Experiment: Human HepG2 cell viability assay in 384 well format
Assay type: toxicity, cell-based
Set-up: dose 125 nL, time 70.5 hour; concentration not given beside the values
Settings: HepG2 cells, read-out: Inhibition
measure: cytotoxicity at 70.5 h (%)
Field format: number, assumed %, no unit text.

Consider the reported cytotoxicity at 70.5 h for these compounds:
Cc1ccc(C)c(NC(=O)Nc2c[nH]c(=O)[nH]c2=O)c1; -27.8
CN(Cc1ccc(F)cc1)CC1(O)CCN(C(=O)c2ccccn2)C1 (centres undefined); -12.9
Cc1nnsc1-c1nnc2sc(C3CCC3)nn12; -10
CS(=O)(=O)N1CCOC(CNC(=O)c2cccc(C#N)c2)C1 (centres undefined); 3.98

**Q:** I am curious: what cytotoxicity at 70.5 h value has been reported for CCc1nccn1CC1CCCN1S(=O)(=O)Cc1ccccc1 (centres undefined) ?
**A:** -10.3

**Q:** Okay, and CCN(Cc1cccc(C(=O)Nc2cn(C)nn2)c1)[C@H]1COC[C@@H]1O ?
**A:** -5.22

**Q:** Note, next up: COc1cccc([C@H]2CN(C(C)=O)[C@@H]3CCN(Cc4ccsc4)C[C@H]23)c1
**A:** -4.18

**Q:** Do the same for O=C(Cc1ccccc1)N1CCn2cc(Cn3cncn3)nc2C1 please
**A:** 9.06

**Q:** Now the compound CCN(C(=O)CS(=O)(=O)Cc1cc(Cl)c2c(c1)OCCCO2)C1CC1
**A:** 0.0743

**Q:** Request: N#Cc1ccnc(N2CCN(Cc3cccc(F)c3)CC2)c1
**A:** -6.08

**Q:** Let us now turn to Cn1ccnc1CN1CCc2ncnc(N3CCCC3)c2CC1
**A:** -3.33

**Q:** Param item: COc1ccc(CN2CCc3ncnc(C4CC4)c3CC2)cc1
**A:** 1.6

----------
Assay: Human HepG2 cell viability assay in 384 well format
Assay type: toxicity, cell-based
Set-up: dose 125 nL, time 70.5 hour; concentration not given beside the values
Settings: HepG2 cells, read-out: Inhibition
Property: cytotoxicity at 70.5 h; scope: individual molecules
Give the value in % but do not write % after it.

Known results for molecules:
Cc1ccc2c(n1)N(Cc1cccnc1)CCN(C1CCOCC1)C2; 2.27
Cc1ccc2c(c1)c(C)cc(=O)n2CCCN; -4.61
CCN1CCC2(CC1)CN(C(=O)c1cccnc1)c1ccc(Cl)cc12; -10.5
CC(C)S(=O)(=O)C(C)C(=O)NCc1ccccc1COc1ccccc1 (stereo unspecified); -11
COC(C)(C)CNC(=O)c1cn(-c2cccc(Cl)c2F)nn1; 4.1

Let us examine a further case.
**Q:** # query: cytotoxicity at 70.5 h of entry CC(CCc1ccccc1F)C(=O)NS(=O)(=O)CC1CC1 (stereo unspecified)
**A:** -0.115
